Data origin, for the record: patent US20230115176A1

Target: Human C5 (Homo sapiens, UniProt P01031)
Construct: purchased Complement Technology
Sequence (P01031 19-1676): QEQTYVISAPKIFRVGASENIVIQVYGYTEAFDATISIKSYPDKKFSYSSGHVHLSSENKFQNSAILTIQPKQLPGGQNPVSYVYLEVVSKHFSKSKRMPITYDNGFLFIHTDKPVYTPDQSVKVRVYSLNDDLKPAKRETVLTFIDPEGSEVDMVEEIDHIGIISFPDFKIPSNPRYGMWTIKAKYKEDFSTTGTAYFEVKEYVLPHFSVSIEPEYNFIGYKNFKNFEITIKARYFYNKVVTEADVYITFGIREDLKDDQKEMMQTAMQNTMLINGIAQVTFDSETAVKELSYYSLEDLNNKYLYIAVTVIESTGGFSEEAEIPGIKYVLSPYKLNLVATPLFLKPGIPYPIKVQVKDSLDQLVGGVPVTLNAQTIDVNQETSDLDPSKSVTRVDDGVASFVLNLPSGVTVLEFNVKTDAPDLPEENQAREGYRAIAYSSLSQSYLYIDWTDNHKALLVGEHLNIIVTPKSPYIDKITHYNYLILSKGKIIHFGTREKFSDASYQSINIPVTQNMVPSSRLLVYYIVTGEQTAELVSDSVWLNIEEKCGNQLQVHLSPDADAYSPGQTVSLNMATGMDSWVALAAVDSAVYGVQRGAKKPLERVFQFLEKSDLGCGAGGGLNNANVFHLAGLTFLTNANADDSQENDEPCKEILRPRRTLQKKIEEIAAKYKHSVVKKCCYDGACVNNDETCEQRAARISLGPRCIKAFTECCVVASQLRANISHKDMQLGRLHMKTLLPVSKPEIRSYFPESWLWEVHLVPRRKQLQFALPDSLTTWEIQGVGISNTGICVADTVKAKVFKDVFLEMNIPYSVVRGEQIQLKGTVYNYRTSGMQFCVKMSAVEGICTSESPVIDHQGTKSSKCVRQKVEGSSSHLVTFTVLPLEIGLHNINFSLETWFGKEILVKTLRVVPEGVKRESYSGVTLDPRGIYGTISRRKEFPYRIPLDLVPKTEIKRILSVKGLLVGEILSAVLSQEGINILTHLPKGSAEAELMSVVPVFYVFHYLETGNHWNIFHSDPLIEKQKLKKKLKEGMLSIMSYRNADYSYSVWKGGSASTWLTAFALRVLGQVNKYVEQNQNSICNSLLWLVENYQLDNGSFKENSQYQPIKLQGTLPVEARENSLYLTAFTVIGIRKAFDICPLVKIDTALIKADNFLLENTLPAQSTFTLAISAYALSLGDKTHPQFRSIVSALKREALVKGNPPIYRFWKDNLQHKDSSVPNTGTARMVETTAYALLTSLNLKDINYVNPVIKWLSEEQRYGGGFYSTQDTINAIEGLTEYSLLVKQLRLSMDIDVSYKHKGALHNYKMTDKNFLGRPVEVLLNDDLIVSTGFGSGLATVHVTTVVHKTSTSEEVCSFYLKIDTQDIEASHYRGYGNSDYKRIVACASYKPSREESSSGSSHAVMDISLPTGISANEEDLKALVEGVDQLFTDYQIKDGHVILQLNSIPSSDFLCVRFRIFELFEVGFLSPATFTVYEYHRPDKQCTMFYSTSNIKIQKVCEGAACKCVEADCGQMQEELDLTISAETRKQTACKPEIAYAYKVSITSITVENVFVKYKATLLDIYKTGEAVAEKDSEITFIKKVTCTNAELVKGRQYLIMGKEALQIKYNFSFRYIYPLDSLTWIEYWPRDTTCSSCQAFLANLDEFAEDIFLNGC
Assay: Red blood cell (RBC) hemolysis assay, luminescent (Example 13, Table 22); also: 1.5% C5-depleted human serum
Type: cell-based
Conditions: sheep EA cells, […] C5-depleted human serum, 0.5 nM human C5, 1 hour 37° C., luminescence
MEASURED_METRIC: IC50 (nM)
Your answer should be a plain number; it is taken to be in nM.

Supply recorded IC50 for `CCCCCOc1cc(N2CCCN(Cc3ccc(F)c4c3ccn4CC(=O)N(C)C)C2=O)ccc1OC` here.
60.5

Report IC50, nothing else, for this molecule: `CCCCCOc1cc(N2CCCN(Cc3ccc(CC(=O)N(C)C)cc3OC)C2=O)ccc1C1CC1`
54.8

Provide measured IC50 value, entry: CCCCCOc1cc(N2CCCN(Cc3ccnc4c3ccn4CC3CCCO3)C2=O)ccc1OC (stereo not shown)
101

For the molecule `CCCCCOc1cc(N2CCCN(Cc3ccnc4c3ccn4CC(=O)N3CC[C@@H](OC)C3)C2=O)ccc1OC` , give its measured IC50 value.
55.2
